TGT: T1, recombinant human c-Met extracellular domain (R&D systems) (human, UniProt P08581 25-932)
T1 construct: extracellular domain; Bought reagent; also called coated extracellular domain of c-Met; recombinant c-Met
ASSAY REMARKS: competition ELISA, residual Europium-HGF signal at 615 nm at the lower plateau of the fit; sheet prints no competing mAb ~66000, no HGF-Europium ~600; lower panel
Procedure: ELISA wells were coated overnight at 4° C. with 0.5 μg/mL recombinant human c-Met extracellular domain (R&D systems, Minneapolis, USA) diluted in PBS. […] Mean fluorescence intensity at 615 nm was measured using the EnVision 2101 Multilabel reader (PerkinElmer) applying the following settings: Lance/Delfia dual mirror, emission filter 615, excitation filter 340 nm, delay time 400 μs, window 400 μs, 100 flashes, 2000 μs per cycle and bidirectional row-by-row reading. […]
MEASURED QUANTITY: Bottom (RFU)
Answers are plain numbers, in RFU.

- BINDER: "IgG1-1016-069 (antibody, V domains shown, also called clone 069; TH1016-069) VH: QVQLVQSGAEVKKPGASVKVSCETSGYTFTSYGISWVRQAPGHGLEWMGWISAYNGYTNYAQKLQGRVTMTTDTSTSTAYMELRSLRSDDTAVYYCARDLRGTNYFDYWGQGTLVTVSS VL: DIQMTQSPSSVSASVGDRVTITCRASQGISNWLAWFQHKPGKAPKLLIYAASSLLSGVPSRFSGSGSGTDFTLTISSLQPEDFATYYCQQANSFPITFGQGTRLEIK"
  Bottom [RFU]: 15000
- BINDER: "anti-c-Met HuMab 098 (IgG1) (antibody, V domains shown, also called TH1016-098; PC1016-098) VH: QVQLVQSGAEVKKPGASVKVSCKASGYTFTNFGISWVRQAPGQGLEWMGWISAFNGHTDYSQKVQGRVTMTTDTSTSTAYMELRSLRSDDTAVFYCARSHYYGSGSPFDYWGQGTLVTVSS VL: DIQMTQSPSSLSASVGDRVTITCRASQGISNWLAWYQQKPEKAPKSLIYAASSLQSGVPSRFSGSGSGTDFTLTISSLQPEDFATYYCHQYKSYPWTFGQGTKVEIK"
  Bottom [RFU]: 12700
- BINDER: "anti-c-Met HuMab 096 (IgG1) (antibody, V domains shown, also called TH1016-096; PC1016-096) VH: EVQLVQSGAEVKKPGESLKISCKGSGYSFTSYWIGWVRQMPGKGLEWMGIIYPGDSDTRYSPSFQGQVTISADKSISTAYLQWSSLKASDTAMYYCARQEITGDFDYWGQGTLVTVSS VL: AIQLTQSPSSLSASVGDRVTITCRASQGISSALAWYQQKPGKAPNLLIYAASSLESGVPSRFSGSGSGTDFTLTISSLQPEDFATYYCQQFNSYPLTFGGGTKVEIK"
  Bottom [RFU]: 24800

[Q] Report Bottom for anti-c-Met HuMab 181 (IgG1) (antibody, V domains shown, also called TH1016-181; PC1016-181) VH: QVQLVQSGAEVKKPGASVKVSCKASGYTFTSYGISWVRQAPGQGLEWMGWISTYNGYTNYAQKLQGRVTMTTDTSTSTAYMELRSLRSDDTAVYYCARDLRGTAYFDYWGQGTLVTVSS VL: DIQMTQSPSSVSASVGDRVTITCRASQGISNWLAWYQHKPGKAPKLLIYAASSLLSGVPSRFSGSGSGTDFTLTISSLQPEDFATYYCQQANSFPITFGQGTRLEIK please.
[A] 16300
